assay: small-molecule binders of probe aLefty1, primary screen, biochemical, small-molecule microarray, 635/667 nm fluorescence (AID 1153);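 also: score merges spot fluorescence with signal-to-noise ratio from the scanned slide images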
condition: higher = more signal
Values of composite z-score greater than or equal to 0.2 map to yes; values below map to no.

{"molecule": "O=C1[C@H]2C=C(Br)[C@H](C[C@@H]2c2ccccc2)[C@@]12CO2", "category": "no"}
{"molecule": "C=CC[C@@]1(C(N)=O)N=C(c2ccc(OCCCO)cc2)O[C@@H]1c1ccccc1CN=[N+]=[N-]", "category": "yes"}
{"molecule": "CN1C(=O)C2C=CC(C(O)c3ccccc3)N(Nc3ccccc3)C2C1=O (stereo not given)", "category": "yes"}
{"molecule": "[N-]=[N+]=NCc1ccccc1C[C@]1(C(=O)NCC(O)CO)N=C(c2ccc(OCCCO)cc2)O[C@H]1c1ccccc1 (stereo not given in full)", "category": "yes"}
{"molecule": "COC(=O)[C@@]1(Cc2ccccc2)[C@H]2c3cc(C(=O)N4CCCC4)n(Cc4cccc5ccccc45)c3C[C@H]2CN1C(=O)c1ccccc1", "category": "yes"}
{"molecule": "COC(=O)[C@@]1(Cc2ccc(F)cc2)[C@H]2c3cc(C(=O)N(C)C)n(Cc4ccc(S(C)(=O)=O)cc4)c3C[C@H]2CN1C(=O)c1ccccc1", "category": "yes"}
{"molecule": "CN(C)CCCNC(=O)[C@@]1(c2ccc([N+](=O)[O-])cc2)CC(=O)N(C2CCCCC2)[C@@H]1c1ccc(CO)cc1I", "category": "no"}
{"molecule": "CCOC(=O)C[C@H]1[C@H](OC(=O)c2cc3ccccc3oc2=O)[C@@H](NC(=O)Cc2ccc(OC)cc2)c2cc(OCCCO)ccc2N1C(=O)c1ccccc1", "category": "no"}
{"molecule": "O=C1O[C@@H](c2ccccc2)[C@@H](c2ccccc2)N2[C@@H](c3ccc(OCCO)cc3)[C@]3(C(=O)Nc4ccccc43)[C@@H](C(=O)NC[C@H](O)c3ccccc3)[C@H]12", "category": "no"}
{"molecule": "[N-]=[N+]=NCc1ccccc1[C@@H]1OC(c2ccc(OCCCO)cc2)=N[C@]1(CCS(=O)(=O)c1ccccc1)C(=O)NCc1ccccc1", "category": "yes"}
{"molecule": "CC(C)C[C@H]1NC(=O)[C@@]23C(=O)N[C@@H](Cc4ccccc4)C2[C@H](C)[C@@]2(C)O[C@H]2C3/C=C/C/C=C\\CNC(=O)[C@H](Cc2ccccc2)NC1=O (stereo not given in full)", "category": "no"}
{"molecule": "CC(CO)N1C(=O)[C@@H]2C3C(=O)OCCC/C=C\\[C@H]3OC23C=CCN(c2ccc4ccccc4c2)C(=O)[C@@H]13 (stereo not given in full)", "category": "no"}
{"molecule": "O=C(NCc1ccc(F)cc1)[C@H]1C[C@H]2C(=O)N[C@@H](Cc3ccccc3)C(=O)N2[C@H]1c1ccc(O)cc1", "category": "no"}
{"molecule": "CCOC(=O)C1=CCC(c2ccc(C)cc2)N(S(=O)(=O)c2ccc(C)cc2)C1 (stereo not given)", "category": "no"}
{"molecule": "CN1C(=O)C2C=CC(C(O)c3ccc(I)cc3)N(N3CCCCC3)C2C1=O (stereo not given)", "category": "yes"}
